Biological target: AMPA receptor (human GluR1 flip/stargazin expressed in CHO-K1 cells) (Homo sapiens)
Construct: expressed in transfected cells; host or cells: CHO-K1
Test: AMPA receptor function enhancing activity using calcium influx as index
Type: cell-based
Details: test compound 30 μM with glutamic acid final 3 mM, change in fluorescence in 3 min, 100% = 3 mM glutamic acid + 300 μM cyclothiazide, 0% = 3 mM glutamic acid only
Measured Parameter: activity (%)

molecule="Cc1ccc(C(F)(F)c2ccc(C3=CC=CN4CCS(=O)(=O)N=C34)cc2)cc1 [Example 136]" measured=77
molecule="O=S1(=O)CCN2C=CC=C(c3ccc(OCc4cccc(F)c4)cc3)C2=N1 [Example 82]" measured=65
molecule="O=S1(=O)CCN2C=C(Cl)C=C(c3ccc(Oc4ccnc(C(F)(F)F)c4)cc3)C2=N1 [Example 79]" measured=90
molecule="Cc1ccc(Oc2ccc(C3=CC=CN4CCS(=O)(=O)N=C34)cc2)cc1C [Example 134]" measured=77
molecule="Cc1ccccc1Oc1ccc(C2=CC=CN3CCS(=O)(=O)N=C23)cc1 [Example 115]" measured=80
molecule="CCCOc1ccc(C2CCCN3CCS(=O)(=O)N=C23)cc1F (stereo not drawn) [Example 350]" measured=74
molecule="COc1ccc2cc(C3CCCN4CCS(=O)(=O)N=C34)ccc2c1 (stereo not drawn) [Example 129]" measured=100
molecule="O=S1(=O)CCN2CCCC(c3ccc(C4(c5ccccc5)CCC4)cc3)C2=N1 (stereo not drawn) [Example 321]" measured=64
molecule="CC(C)c1ccc(/C=C/C2=CC=CN3CCS(=O)(=O)N=C23)cc1 [Example 51]" measured=87
molecule="COc1ccc2cc(C3CCCN4CCS(=O)(=O)N=C34)ccc2c1 (stereo not drawn) [Example 128]" measured=98
molecule="O=S1(=O)CCN2CCCC(c3ccc(-c4ccccc4)cc3)C2=N1 (stereo not drawn) [Example 28]" measured=80
molecule="COc1cccc(C(=O)c2ccc(C3=CC=CN4CCS(=O)(=O)N=C34)cc2)c1 [Example 306]" measured=89
molecule="O=S1(=O)CCN2CCCC(c3ccc(-c4ccccc4)s3)C2=N1 (stereo not drawn) [Example 57]" measured=86
molecule="CCc1cccc(Oc2ccc(C3CCCN4CCS(=O)(=O)N=C34)cc2)c1 (stereo not drawn) [Example 132]" measured=75
molecule="O=S1(=O)CCN2CCCC(c3ccc(Oc4ccccc4)cc3)C2=N1 (stereo not drawn) [Example 43]" measured=81
molecule="Cc1ccc(Oc2ccc(C3CCCN4CCS(=O)(=O)N=C34)cc2)cc1 (stereo not drawn) [Example 108]" measured=68
molecule="CC(C)Cn1ccc2cc(C3=CC=CN4CCS(=O)(=O)N=C34)ccc21 [Example 293]" measured=80
molecule="O=S1(=O)CCN2CCCC(c3ccc(Oc4ccccc4)c(F)c3)C2=N1 (stereo not drawn) [Example 347]" measured=76

###

Target: AMPA receptor (human GluR1 flip/stargazin expressed in CHO-K1 cells) (Homo sapiens, UniProt P42261)
Construct: expressed in transfected cells; host or cells: CHO-K1
Sequence (P42261 19-906 isoform P42261-2 limits assumed): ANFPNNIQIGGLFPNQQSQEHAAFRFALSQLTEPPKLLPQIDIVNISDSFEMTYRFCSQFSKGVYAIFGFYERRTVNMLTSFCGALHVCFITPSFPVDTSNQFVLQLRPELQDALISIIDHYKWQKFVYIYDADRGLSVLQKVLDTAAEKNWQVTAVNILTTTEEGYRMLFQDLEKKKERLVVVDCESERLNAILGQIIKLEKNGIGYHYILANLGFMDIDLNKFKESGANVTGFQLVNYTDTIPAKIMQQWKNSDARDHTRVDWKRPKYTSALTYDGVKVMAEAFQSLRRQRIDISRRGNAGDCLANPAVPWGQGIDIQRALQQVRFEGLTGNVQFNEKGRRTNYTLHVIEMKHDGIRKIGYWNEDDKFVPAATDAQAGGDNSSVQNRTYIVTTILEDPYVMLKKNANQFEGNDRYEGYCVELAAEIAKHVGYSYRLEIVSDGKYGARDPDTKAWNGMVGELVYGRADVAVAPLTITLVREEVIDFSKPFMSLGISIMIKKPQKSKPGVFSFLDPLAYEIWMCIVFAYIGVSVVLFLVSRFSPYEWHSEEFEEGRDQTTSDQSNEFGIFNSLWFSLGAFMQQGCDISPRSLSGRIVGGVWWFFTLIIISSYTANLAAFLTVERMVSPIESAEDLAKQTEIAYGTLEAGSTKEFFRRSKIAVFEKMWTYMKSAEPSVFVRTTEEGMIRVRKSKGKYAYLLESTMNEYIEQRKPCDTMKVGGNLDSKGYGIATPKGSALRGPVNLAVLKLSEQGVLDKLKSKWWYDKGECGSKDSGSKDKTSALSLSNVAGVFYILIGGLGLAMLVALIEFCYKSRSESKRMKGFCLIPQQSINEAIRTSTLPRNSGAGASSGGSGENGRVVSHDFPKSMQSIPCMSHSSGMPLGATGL
Sequence (Q9Y698 whole entry partner): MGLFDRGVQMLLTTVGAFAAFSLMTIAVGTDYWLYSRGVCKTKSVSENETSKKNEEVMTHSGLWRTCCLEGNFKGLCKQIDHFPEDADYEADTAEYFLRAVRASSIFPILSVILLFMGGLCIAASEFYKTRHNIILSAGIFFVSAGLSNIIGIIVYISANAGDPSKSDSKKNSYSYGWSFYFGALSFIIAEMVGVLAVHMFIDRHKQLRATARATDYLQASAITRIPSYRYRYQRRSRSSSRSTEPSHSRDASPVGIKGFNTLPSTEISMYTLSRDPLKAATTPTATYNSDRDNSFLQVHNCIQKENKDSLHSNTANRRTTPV
Assay: AMPA receptor function enhancing activity using calcium influx as index
Type: cell-based
Settings: test compound 30 μM with 3 mM glutamic acid, change in fluorescence level in 3 min, 100% = 3 mM glutamic acid + 300 μM cyclothiazide, 0% = 3 mM glutamic acid only
Measured Parameter: activity (%)

compound=Cc1cc(F)ccc1Oc1ccc(C2=CC=CN3CCS(=O)(=O)N=C23)cc1 measured_parameter="activity (%)" unit_of_measurement=% measured=76
compound=O=S1(=O)CCN2C=CC=C(c3ccc(-c4ccccc4)nc3)C2=N1 measured_parameter="activity (%)" unit_of_measurement=% measured=84
compound="CC(F)(F)c1ccc(Oc2ccc(C3CCCN4CCS(=O)(=O)N=C34)cc2)cc1 (stereo not shown)" measured_parameter="activity (%)" unit_of_measurement=% measured=84
compound="O=S1(=O)CCN2CCCC(c3ccc(Oc4ccc(C(F)(F)F)cc4)cc3)C2=N1 (stereo not shown)" measured_parameter="activity (%)" unit_of_measurement=% measured=60
compound=COC1=C(c2ccc(Oc3ccccc3)cc2)C2=NS(=O)(=O)CCN2C=C1 measured_parameter="activity (%)" unit_of_measurement=% measured=70
compound="O=S1(=O)CCN2CCCC(c3ccc(Oc4ccc(Cl)cc4)cc3)C2=N1 (stereo not shown)" measured_parameter="activity (%)" unit_of_measurement=% measured=73
compound=O=S1(=O)CCN2C=C(Cl)C=C(c3ccc(Oc4cncc(C(F)(F)F)c4)cc3)C2=N1 measured_parameter="activity (%)" unit_of_measurement=% measured=91
compound="O=S1(=O)CCN2C=C(Cl)C=C(c3ccc(OCC4CCCO4)cc3)C2=N1 (stereo not shown)" measured_parameter="activity (%)" unit_of_measurement=% measured=81
compound=COc1cc(Oc2ccc(C3=CC=CN4CCS(=O)(=O)N=C34)cc2)ccc1Cl measured_parameter="activity (%)" unit_of_measurement=% measured=75
compound="CC(F)(F)c1cccc(Oc2ccc(C3CCCN4CCS(=O)(=O)N=C34)cc2)c1 (stereo not shown) [Example 157]" measured_parameter="activity (%)" unit_of_measurement=% measured=89
compound=CCc1ccc(Oc2ccc([C@@H]3CCCN4CCS(=O)(=O)N=C34)cc2)cc1 measured_parameter="activity (%)" unit_of_measurement=% measured=74
compound="O=S1(=O)CCN2CCCC(c3ccc(Oc4ccc(Br)c(C(F)(F)F)c4)cc3)C2=N1 (stereo not shown)" measured_parameter="activity (%)" unit_of_measurement=% measured=70
compound=Cc1cccc(Oc2ccc(C3=CC=CN4CCS(=O)(=O)N=C34)cc2)n1 measured_parameter="activity (%)" unit_of_measurement=% measured=73
compound="CC1CC(c2ccc(Oc3cccc(C(C)(F)F)c3)cc2)C2=NS(=O)(=O)CCN2C1 (racemic) [Example 172]" measured_parameter="activity (%)" unit_of_measurement=% measured=74
compound=Cc1cc(Cl)ccc1Oc1ccc([C@@H]2CCCN3CCS(=O)(=O)N=C23)cc1 measured_parameter="activity (%)" unit_of_measurement=% measured=67
compound=CCCCn1ccc2cc(C3=CC=CN4CCS(=O)(=O)N=C34)ccc21 measured_parameter="activity (%)" unit_of_measurement=% measured=90
compound="O=S1(=O)CCN2CCNC(c3ccc(Oc4ccccc4)cc3)C2=N1 (stereo not shown)" measured_parameter="activity (%)" unit_of_measurement=% measured=71
compound=O=S1(=O)CCN2C=C(Cl)C=C(c3ccc(OCC4CCOCC4)cc3)C2=N1 measured_parameter="activity (%)" unit_of_measurement=% measured=80
compound=O=S1(=O)CCN2CCC[C@@H](c3ccc(Oc4cccc(Cl)c4)cc3)C2=N1 measured_parameter="activity (%)" unit_of_measurement=% measured=85
compound=O=S1(=O)CCN2C=CC=C(c3ccc(Oc4ccnc(C(F)(F)F)c4)cc3)C2=N1 measured_parameter="activity (%)" unit_of_measurement=% measured=84
compound=O=S1(=O)CCN2C=CC=C(Oc3ccc4c(c3)CCCC4)C2=N1 measured_parameter="activity (%)" unit_of_measurement=% measured=66
compound=O=S1(=O)CCN2C=CC=C(c3ccc(Oc4ccc(Cl)cc4)cc3)C2=N1 measured_parameter="activity (%)" unit_of_measurement=% measured=70
compound="CC(F)(F)c1cccc(Oc2ccc(C3CCCN4CCS(=O)(=O)N=C34)cc2)c1 (stereo not shown) [Example 159]" measured_parameter="activity (%)" unit_of_measurement=% measured=90
compound=O=S1(=O)CCN2C=CC=C(c3ccc(-n4cccn4)cc3)C2=N1 measured_parameter="activity (%)" unit_of_measurement=% measured=88
compound="CC1CC(c2ccc(Oc3cccc(C(C)(F)F)c3)cc2)C2=NS(=O)(=O)CCN2C1 (stereo not shown) [Example 171]" measured_parameter="activity (%)" unit_of_measurement=% measured=87
compound=O=S1(=O)CCN2C=CC=C(c3ccc(Oc4ccccc4C(F)(F)F)cc3)C2=N1 measured_parameter="activity (%)" unit_of_measurement=% measured=84
compound=O=S1(=O)CCN2C=CC=C(c3ccc(Oc4cnccc4C(F)(F)F)cc3)C2=N1 measured_parameter="activity (%)" unit_of_measurement=% measured=84
compound="O=S1(=O)CCN2CCCC(c3ccc(C(F)(F)c4ccccc4)cc3)C2=N1 (stereo not shown)" measured_parameter="activity (%)" unit_of_measurement=% measured=74
compound=O=S1(=O)CCN2C=CC=C(c3ccc(Oc4ccccc4)cn3)C2=N1 measured_parameter="activity (%)" unit_of_measurement=% measured=79
compound=O=S1(=O)CCN2C=C(Cl)C=C(c3ccc(Oc4ccc(C(F)(F)F)nc4)cc3)C2=N1 measured_parameter="activity (%)" unit_of_measurement=% measured=86
compound=O=S1(=O)CCN2CCC[C@@H](c3ccc(Oc4ccc(Cl)cc4)cc3)C2=N1 measured_parameter="activity (%)" unit_of_measurement=% measured=77
compound="O=S1(=O)CCN2CCCC(c3ccc(OC4CCCCC4)cc3)C2=N1 (stereo not shown)" measured_parameter="activity (%)" unit_of_measurement=% measured=72
compound="CCc1ccc(Oc2ccc(C3CCCN4CCS(=O)(=O)N=C34)cc2)cc1 (stereo not shown)" measured_parameter="activity (%)" unit_of_measurement=% measured=57
compound="Cc1cc(F)ccc1Oc1ccc(C2CCCN3CCS(=O)(=O)N=C23)cc1 (stereo not shown) [Example 144]" measured_parameter="activity (%)" unit_of_measurement=% measured=76
